test: Cytotoxic Profiling in HEK 293 Cell Line of Diverse Libraries Using Quantitative High-Throughput Screening; conditions: HEK 293 viability, ATP luminescence (CellTiter-Glo), 48-72 h; series mostly up to 115 µM; further: nearly all actives have a fitted effect of over 60% in size
Screen size: about 94,000 compounds; about 6,200 (6.6%) were called active. Inconclusive results (about 31%) are left out. The call rests on the fitted dose curve; in most records, active means well fitted inhibition curve with a large enough effect; inconclusive means small, poorly fitted or top-dose-only effect; inactive means flat fitted curve, though single readings scatter. The entries come from a sample that favours actives as a whole.
Labels: active, inactive

compound=CC(C)(C)c1coc([C@@H]2COCCN2Cc2ccc(F)cc2)n1 assigned_class=inactive
compound="Cc1ccccc1NC(=O)CN1C(=O)NC(c2ccccc2Cl)C2=C1COC2=O (stereo not drawn)" assigned_class=inactive
compound="Cc1ccc(Cl)cc1NC(=O)CN1C(=O)NC(c2ccc(Cl)cc2)C2=C1COC2=O (stereo not drawn)" assigned_class=active
compound=CC(=O)N1CCC(N2CCOC[C@H]2c2ncc(-c3ccc(Cl)s3)[nH]2)CC1 assigned_class=inactive
compound=Oc1ccccc1CN1CCOC[C@H]1c1ncc(-c2ccc(C(F)(F)F)cc2)[nH]1 assigned_class=active
compound="Cc1ccc(CNC(=O)c2ccc3c(c2)N(C)C2CCCCN2C3=O)cc1C (stereo not drawn)" assigned_class=inactive
compound=Fc1ccc(CN2CCOC[C@H]2c2ncc(-c3cccnc3)[nH]2)cc1 assigned_class=inactive
compound=Cn1cc(CN2CCOC[C@H](Oc3ccc(S(C)(=O)=O)cc3)C2)c2ccccc21 assigned_class=active
compound=CN(C)CC1(O)CCC2(CCN(C(=O)c3ccc4ccccc4n3)CC2)CC1 assigned_class=inactive
compound=COCCn1ccc2cc(C(=O)Nc3ccc4c(c3)C(=O)N3CCC[C@H]3C(=O)N4)ccc21 assigned_class=inactive
compound=CNc1nc(N2CC[C@H](N3CCN(C)CC3)[C@H](CCC(=O)O)C2)ncc1F assigned_class=inactive
compound=CN(Cc1ccc(OC(F)(F)F)cc1)C(=O)C1(C)CCOCC1 assigned_class=inactive
compound=CN1CCCCCCN(C(=O)Nc2ccccc2)CCC1=O assigned_class=inactive
compound=CN(C)CC(=O)N1CC[C@H]2COC(=O)N2c2ccccc2C1 assigned_class=inactive
compound=Cn1cc(CN2CCOC[C@H]2c2ncc(-c3cccc(F)c3)[nH]2)c2ccccc21 assigned_class=active
compound="COCCN1C(=O)c2ccccc2C(C(=O)NC2CC2)C12CCCCC2 (stereo not drawn)" assigned_class=inactive
compound=O=C1NCCCCCCN(S(=O)(=O)c2cccs2)[C@H]2CCCC[C@@H]12 assigned_class=inactive
compound=O=C(O)C[C@@H]1CCN(C(=O)C2CCCCC2)C[C@@H]1CCN1CCN(c2ccccc2)CC1 assigned_class=inactive
compound=COCCN1CCOC[C@H]2CCN(C(=O)c3sc(C)nc3C)C[C@H]21 assigned_class=inactive
compound=Cc1cccc(NC(=O)Cn2nc3n(c2=O)CCCC3)c1 assigned_class=inactive
compound="CC(C)NC(=O)C1CCc2nnc(CNC(=O)c3ccc(Cl)cc3Cl)n21 (stereo not drawn)" assigned_class=inactive
compound=CC(C)S(=O)(=O)N1CCC(c2nnc3n2CCNC3)CC1 assigned_class=inactive
compound=COc1ccc(NC(=O)CCC2CCN(S(=O)(=O)c3ccc(C)cc3)CC2)cc1F assigned_class=inactive
compound="CN1c2cc(C(=O)Nc3ccccc3)ccc2C(=O)N2CCCCCC21 (stereo not drawn)" assigned_class=active
compound=O=C(CCC1CCN(C(=O)c2ccccc2F)CC1)Nc1cccc(Cl)c1 assigned_class=active
compound=COc1ccc(O[C@H]2COCCN(Cc3nccn3C)C2)cc1 assigned_class=inactive
compound=Cn1c(CNC(=O)Cn2nc3c(cc2=O)CCCC3)nc2ccccc21 assigned_class=inactive
compound="O=C(C1CCC1)N1CCC(Oc2cccnc2)C1 (stereo not drawn)" assigned_class=inactive
compound=c1cc(CN2CCOC[C@H]2c2ncc(-c3ccncc3)[nH]2)ccn1 assigned_class=inactive
compound=Cn1cc(CN2CC[C@H](c3nnc(-c4cccnc4)o3)C2)c2ccccc21 assigned_class=inactive
compound=C[C@@H](NC(=O)c1cccnc1)c1c(-c2ccc(F)cc2)noc1C(=O)O assigned_class=inactive
compound=CCOC(=O)[C@H]1[C@@H](O)C(=O)N(Cc2ccccc2)C12CCN([S+](C)(=O)[O-])CC2 assigned_class=inactive
compound=Cc1ccc(CN2CCOC[C@H]2c2ncc(-c3cccc(F)c3)[nH]2)cc1 assigned_class=active
compound=Cn1ccc(C(=O)N2C[C@H]3CN(C4CCOCC4)C[C@@]3(C(=O)O)C2)n1 assigned_class=inactive
compound=Cn1cc(-c2ccsc2)c2nc(CN3CCNC(=O)C3)cn2c1=O assigned_class=inactive
compound=Cc1ccc(C(=O)N2CCC(C(=O)N3CCC(N4CCOCC4=O)CC3)CC2)cc1 assigned_class=inactive
compound=CC(=O)N1CCc2[nH]cnc2C12CCN(C(=O)c1ccc(C)c(C)c1)CC2 assigned_class=inactive
compound="CCOc1ccc(NC(=O)c2ccc3c(c2)N(C)C2CCCN2C3=O)cc1 (stereo not drawn)" assigned_class=inactive
compound=CC(=O)N1Cc2ccccc2CC2(CCN(Cc3cccnc3)CC2)C1 assigned_class=inactive
compound=c1cncc(-c2cnc([C@@H]3COCCN3Cc3cnc4ccccc4c3)[nH]2)c1 assigned_class=inactive
compound=COc1ccc(C(=O)N2CCC([C@@H]3CNC[C@H]3CO)CC2)cc1OC assigned_class=inactive
compound="O=C(NCC1CCCO1)c1noc(-c2ccccc2F)n1 (stereo not drawn)" assigned_class=inactive
compound="CCOC(=O)c1cccc(NC(=O)c2ccc3c(c2)N(C)C2CCCCN2C3=O)c1 (stereo not drawn)" assigned_class=active
